- System: NCI-H358 (K-Ras G12C)
- Test Method Notes: CellTiter-Glo cell viability assay, NCI-H358
- Format: cell-based, human
- Condition Parameters: Homo sapiens, NCI-H358, 120 h, NCI-H358, 5-day treatment; class symbols; read-out: Additional H358 Cell Viability assay data (K-Ras G12C, IC50)
Readout Name: IC50

- Molecule: "C=CC(=O)N1CC2(CCN(C(=O)N(C)[C@H](C(=O)N[C@H]3Cc4cccc(c4)-c4ccc5c(c4)c(c(-c4cccnc4[C@H](C)OC)n5CC)CC(C)(C)COC(=O)[C@@H]4CCCN(N4)C3=O)C(C)C)CC2)C1 (atropisomer, axis not shown) [Example A680]"
  Assay Result: "10 to 100 nM"
- Molecule: "C=CC(=O)N1CCC12CN(C(=O)N(C)[C@H](C(=O)N[C@H]1Cc3nc(cs3)-c3ccc4c(c3)c(c(-c3cccnc3[C@H](C)OC)n4CC)CC(C)(C)COC(=O)[C@@H]3CCCN(N3)C1=O)C(C)C)C2 (atropisomer, axis not shown) [Example A393]"
  Assay Result: "10 to 100 nM"

Now let's try a different one.
GET /value?item= CCn1c(-c2cccnc2[C@H](C)OC)c2c3cc(ccc31)-c1cc(O)cc(c1)C[C@H](NC(=O)[C@H](C(C)C)N1CC[C@]3(CCN(C(=O)/C=C/CN(C)C)C3)C1=O)C(=O)N1CCC[C@H](N1)C(=O)OCC(C)(C)C2 (atropisomer, axis not shown) [Example A268] &field=IC50 returns 10 to 100 nM
